assay-target: Oxysterols receptor LXR-beta (Homo sapiens) (UniProt P55055)
Sequence (P55055 whole entry, looked up): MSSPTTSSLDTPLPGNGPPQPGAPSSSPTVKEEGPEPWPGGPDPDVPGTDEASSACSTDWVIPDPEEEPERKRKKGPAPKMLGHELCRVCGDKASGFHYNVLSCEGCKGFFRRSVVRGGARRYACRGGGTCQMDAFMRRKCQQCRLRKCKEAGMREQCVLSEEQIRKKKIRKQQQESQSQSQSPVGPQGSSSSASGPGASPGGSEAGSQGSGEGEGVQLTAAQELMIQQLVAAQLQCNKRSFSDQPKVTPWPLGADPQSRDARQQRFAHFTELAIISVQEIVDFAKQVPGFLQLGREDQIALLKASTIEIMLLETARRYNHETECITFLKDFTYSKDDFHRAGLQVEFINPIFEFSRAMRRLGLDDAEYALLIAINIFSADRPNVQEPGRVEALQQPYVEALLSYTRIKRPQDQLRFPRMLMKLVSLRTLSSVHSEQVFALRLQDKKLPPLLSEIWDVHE
method-description: ATG_LXRb_TRANS: Attagene TRANS-FACTORIAL HepG2 Assay for human Liver X Receptor beta (LXRb) (AID 2282981)
setup-conditions: HepG2 Attagene TRANS GAL4-LXRb reporter, mRNA
Results filed as inconclusive are left out. Calls of active or inactive are those of the source. How the source made its calls: active means hit-call score of the fitted dose curve at least 0.9, where 1 is the maximum; inconclusive means response in the unintended direction; inactive means score below 0.9.
Possible outcomes: active, inactive

{"columns": ["compound", "label"],
 "data": [
  ["O=S1OCC2C(CO1)C1(Cl)C(Cl)=C(Cl)C2(Cl)C1(Cl)Cl (configuration not stated)", "inactive"],
  ["CN1CSC(=S)N(C)C1", "inactive"],
  ["ClC1C(Cl)C(Cl)C(Cl)C(Cl)C1Cl (configuration not stated)", "inactive"],
  ["CNC(=O)CSP(=S)(OC)OC", "inactive"],
  ["CNC(=O)Oc1ccccc1OC(C)C", "inactive"],
  ["COc1nn(CSP(=S)(OC)OC)c(=O)s1", "inactive"],
  ["CC[C@H](C)[C@H]1O[C@]2(C=C[C@@H]1C)C[C@@H]1C[C@@H](C/C=C(\\C)[C@@H](O[C@H]3C[C@H](OC)[C@@H](O[C@H]4C[C@H](OC)[C@@H](O)[C@H](C)O4)[C@H](C)O3)[C@@H](C)/C=C/C=C3\\CO[C@@H]4[C@H](O)C(C)=C[C@@H](C(=O)O1)[C@]34O)O2 (tested in a mixture with another compound)", "inactive"],
  ["CC(C)(C)C(O)C(Oc1ccc(Cl)cc1)n1cncn1 (configuration not stated)", "inactive"],
  ["COC(=O)c1ccccc1S(=O)(=O)NC(=O)N(C)c1nc(C)nc(OC)n1", "inactive"],
  ["OCCOc1ccccc1", "inactive"],
  ["CCS(=O)(=O)c1cccnc1S(=O)(=O)NC(=O)Nc1nc(OC)cc(OC)n1", "inactive"],
  ["CC1(C)C(C=C(Cl)Cl)C1C(=O)OC(C#N)c1ccc(F)c(Oc2ccccc2)c1 (configuration not stated)", "inactive"],
  ["N#Cc1c(Cl)c(Cl)c(Cl)c(C#N)c1Cl", "inactive"],
  ["CCCN(CCC)c1c([N+](=O)[O-])cc(C(F)(F)F)cc1[N+](=O)[O-]", "inactive"],
  ["Oc1ccc(Cl)cc1Cc1ccccc1", "inactive"],
  ["COP(=S)(OC)Oc1ccc(SC)c(C)c1", "active"],
  ["O=[N+]([O-])/N=C1\\NCCN1Cc1ccc(Cl)nc1", "inactive"]
]}

* * *

Read-out: Monokine induced gamma interferon (MIG), CXCL9 (gene 4283)
method-description: BSK_BE3C_MIG: BioMAP Diversity Plus: BE3C Assay for Monokine induced gamma interferon (MIG) Biomarker Activity (AID 2283035);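 on Outcome: MIG protein measured by ELISA in BE3C cultures after 24 h of dosing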
setup-conditions: primary human bronchial epithelial cells; actives raise or lower the signal
Calls of active or inactive are those of the source. Rule for the calls: active = hit-call score of the fitted dose curve at least 0.9, where 1 is the maximum; inactive = score below 0.9.
Outcome codes: 1 for active, -1 for inactive

{"columns": ["compound", "label"],
 "data": [
  ["CCC(C)(NC(=O)c1cc(Cl)c(C)c(Cl)c1)C(=O)CCl (stereo unspecified)", 1],
  ["CC1(c2ccc(Oc3ccccc3)cc2)OC(=O)N(Nc2ccccc2)C1=O (stereo unspecified)", -1],
  ["O=C(O)C(F)(F)C(F)(F)C(F)(F)C(F)(F)C(F)(F)C(F)(F)C(F)(F)F", -1],
  ["CNC(=O)Oc1ccccc1OC(C)C", -1],
  ["COP(=O)(OC)OC=C(Cl)Cl", -1],
  ["CCC(C)Nc1c([N+](=O)[O-])cc(C(C)(C)C)cc1[N+](=O)[O-] (stereo unspecified)", -1]
]}

* * *

Read-out: Urokinase-type plasminogen activator receptor (uPAR), PLAUR (gene 5329)
method-description: BSK_CASM3C_uPAR: BioMAP Diversity Plus: CASM3C Assay for Urokinase-type plasminogen activator receptor (uPAR) Biomarker Activity (AID 2283054);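 further: cell-surface uPAR protein level quantified by ELISA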
setup-conditions: primary human coronary artery smooth muscle cells; actives raise or lower the signal
The source made the active and inactive calls. Rule for the calls: active = hit-call score of the fitted dose curve at least 0.9, where 1 is the maximum; inactive = score below 0.9.
Outcome codes: 1.0 for active, 0.0 for inactive

{"columns": ["compound", "label"],
 "data": [
  ["O=C(O)CCCOc1ccc(Cl)cc1Cl", 0.0],
  ["OCCOc1ccccc1", 0.0],
  ["O=[N+]([O-])c1c(Cl)c(Cl)c(Cl)c(Cl)c1Cl", 0.0],
  ["O=C(NC(=O)c1c(F)cccc1F)Nc1ccc(OC(F)(F)C(F)OC(F)(F)F)c(Cl)c1 (centres undefined)", 0.0],
  ["CCOCN(C(=O)CCl)c1c(C)cccc1CC", 0.0],
  ["CNC(=O)CSP(=S)(OC)OC", 0.0],
  ["O=S(=O)(O)C(F)(F)C(F)(F)C(F)(F)C(F)(F)C(F)(F)C(F)(F)C(F)(F)C(F)(F)F", 0.0],
  ["CCCN(CCOc1c(Cl)cc(Cl)cc1Cl)C(=O)n1ccnc1", 0.0],
  ["CC[C@H](C)[C@H]1O[C@]2(C=C[C@@H]1C)C[C@@H]1C[C@@H](C/C=C(\\C)[C@@H](O[C@H]3C[C@H](OC)[C@@H](O[C@H]4C[C@H](OC)[C@@H](O)[C@H](C)O4)[C@H](C)O3)[C@@H](C)/C=C/C=C3\\CO[C@@H]4[C@H](O)C(C)=C[C@@H](C(=O)O1)[C@]34O)O2 (tested in a mixture with another compound)", 1.0],
  ["Oc1cc(Cl)ccc1Oc1ccc(Cl)cc1Cl", 1.0],
  ["Cc1[nH]c(=O)n(C(C)(C)C)c(=O)c1Cl", 0.0],
  ["CC1(c2ccc(Oc3ccccc3)cc2)OC(=O)N(Nc2ccccc2)C1=O (centres undefined)", 1.0],
  ["CC(C)(C)C(O)C(Oc1ccc(Cl)cc1)n1cncn1 (centres undefined)", 0.0],
  ["CC(C)(C)C(O)/C(=C\\c1ccc(Cl)cc1Cl)n1cncn1 (centres undefined)", 0.0]
]}

* * *

method-description: APR_HepG2_MicrotubuleCSK_72hr: Apredica 72-hour HepG2 Assay for Microtubule CSK Stabilty (AID 2282919)
setup-conditions: HepG2 microtubule cytoskeleton, high-content imaging, actives raise or lower the signal
Active and inactive are the calls of the source. The calls were made as follows: active = hit-call score of the fitted dose curve at least 0.9, where 1 is the maximum; inactive = score below 0.9.
Classes used: active, inactive

{"columns": ["compound", "label"],
 "data": [
  ["CNC(=O)Oc1ccccc1OC(C)C", "inactive"],
  ["COc1cc(OC)nc(NC(=O)NS(=O)(=O)c2cc(NC=O)ccc2C(=O)N(C)C)n1", "inactive"],
  ["CCN(CC)C(=O)SCc1ccc(Cl)cc1", "inactive"],
  ["O=C(NC(=O)c1c(F)cccc1F)Nc1ccc(OC(F)(F)C(F)OC(F)(F)F)c(Cl)c1 (stereo not drawn)", "inactive"],
  ["[2H]C1([2H])[n+]2ccccc2-c2cccc[n+]2C1([2H])[2H]", "active"],
  ["O=C(O)COc1ccc(Cl)cc1Cl", "inactive"],
  ["COP(=S)(OC)Oc1ccc([N+](=O)[O-])cc1", "inactive"],
  ["CNC(=O)CSP(=S)(OC)OC", "inactive"],
  ["CCOCN(C(=O)CCl)c1c(C)cccc1CC", "active"],
  ["CCCN(CCC)c1c([N+](=O)[O-])cc(C(F)(F)F)cc1[N+](=O)[O-]", "inactive"],
  ["CC(C)OC(=O)Nc1cccc(Cl)c1", "inactive"],
  ["CC(C)(C)C(O)/C(=C\\c1ccc(Cl)cc1Cl)n1cncn1 (stereo not drawn)", "active"],
  ["CCOc1nc(NC)nc(NC(=O)NS(=O)(=O)c2ccccc2C(=O)OC)n1", "inactive"]
]}

* * *

Read-out: Thrombomodulin, THBD (gene 7056)
method-description: BSK_CASM3C_Thrombomodulin: BioMAP Diversity Plus: CASM3C Assay for Thrombomodulin Biomarker Activity (AID 2283051);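 further: thrombomodulin protein level measured by ELISA 24 h after dosing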
setup-conditions: primary human coronary artery smooth muscle cells; actives raise or lower the signal
The source made the active and inactive calls. Rule for the calls: active = hit-call score of the fitted dose curve at least 0.9, where 1 is the maximum; inactive = score below 0.9.
Outcomes: y (active), n (inactive)

{"columns": ["compound", "label"],
 "data": [
  ["CC1(C)C(C=C(Cl)Cl)C1C(=O)OC(C#N)c1ccc(F)c(Oc2ccccc2)c1 (configuration not stated)", "y"],
  ["CCOCN(C(=O)CCl)c1c(C)cccc1CC", "y"],
  ["CC[C@H](C)[C@H]1O[C@]2(C=C[C@@H]1C)C[C@@H]1C[C@@H](C/C=C(\\C)[C@@H](O[C@H]3C[C@H](OC)[C@@H](O[C@H]4C[C@H](OC)[C@@H](O)[C@H](C)O4)[C@H](C)O3)[C@@H](C)/C=C/C=C3\\CO[C@@H]4[C@H](O)C(C)=C[C@@H](C(=O)O1)[C@]34O)O2 (tested in a mixture with another compound)", "n"],
  ["OCCOc1ccccc1", "n"],
  ["CCCN(CCC)c1c([N+](=O)[O-])cc(C(F)(F)F)cc1[N+](=O)[O-]", "n"],
  ["CN1CSC(=S)N(C)C1", "n"],
  ["C[C@H]1[C@H](c2ccc(Cl)cc2)SC(=O)N1C(=O)NC1CCCCC1", "y"],
  ["O=C(O)C(F)(F)C(F)(F)C(F)(F)C(F)(F)C(F)(F)C(F)(F)C(F)(F)F", "n"],
  ["CNC(=O)Oc1cccc(N=CN(C)C)c1", "n"],
  ["O=S(=O)(O)C(F)(F)C(F)(F)C(F)(F)C(F)(F)C(F)(F)C(F)(F)C(F)(F)C(F)(F)F", "n"],
  ["Clc1ccccc1-c1nnc(-c2ccccc2Cl)nn1", "n"],
  ["O=C(Nc1ccccc1)Nc1cnns1", "n"]
]}
